Where do these numbers come from? They come from ChEMBL document CHEMBL5579804.

Biological target: Ribose-5-phosphate isomerase B (Mycobacterium tuberculosis) (UniProt P9WKD7)
Sequence (whole entry): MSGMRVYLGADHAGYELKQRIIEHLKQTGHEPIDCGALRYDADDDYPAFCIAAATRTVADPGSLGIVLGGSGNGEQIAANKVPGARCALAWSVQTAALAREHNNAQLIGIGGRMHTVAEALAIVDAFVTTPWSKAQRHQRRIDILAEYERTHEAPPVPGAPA
Assay: Competitive inhibition of Mycobacterium tuberculosis RPIB assessed as ratio of Km/Ki using D-ribose-5-phosphate as substrate by Cheng-Prusoff equation analysis
valueKind: Ratio

>>> val("O=C(O)[C@@H](O)[C@@H](O)[C@@H](O)COP(=O)(O)O (single isomer, unassigned)")
233
>>> val("O=S(=O)(O)OC[C@H]1OC(O)[C@H](O)[C@@H]1O (stereo partly specified)")
53
>>> val("CC(C(C(=O)O)C(=O)O)[C@@H](O)[C@@H](O)[C@@H](O)CCP(=O)(O)O (stereo partly specified)")
26
>>> val("CC(C(C(=O)O)C(=O)O)[C@@H](O)[C@@H](O)[C@@H](O)CCC(=O)O (stereo partly specified)")
7
>>> val("O=C(O)C(C[C@H]1OC(O)[C@H](O)[C@@H]1O)C(=O)O (stereo partly specified)")
6
>>> val("O=S(=O)(O)CC[C@H]1OC(O)[C@H](O)[C@@H]1O (stereo partly specified)")
19

---

The following compounds are listed with their measured Selectivity ratio values.
assay: Selectivity ratio of Km/Ki for Mycobacterium tuberculosis RpiB to Km/Ki for Spinacia oleracea RpiA
valueKind: Selectivity ratio

>>> val("O=C(O)[C@@H](O)[C@@H](O)[C@@H](O)COP(=O)(O)O (single isomer, unassigned)")
3
>>> val("CC(C(C(=O)O)C(=O)O)[C@@H](O)[C@@H](O)[C@@H](O)CCP(=O)(O)O (some centres not stated)")
"> 6.5"
>>> val("O=C(O)[C@H](O)[C@H](O)[C@H](O)COP(=O)(O)O")
4.5
>>> val("O=C(O)C(C[C@H]1OC(O)[C@H](O)[C@@H]1O)C(=O)O (some centres not stated)")
0.8
>>> val("O=S(=O)(O)OC[C@H]1OC(O)[C@H](O)[C@@H]1O (some centres not stated)")
3.1
>>> val("CC(C(C(=O)O)C(=O)O)[C@@H](O)[C@@H](O)[C@@H](O)CCC(=O)O (some centres not stated)")
"> 1.7"
>>> val("O=S(=O)(O)CC[C@H]1OC(O)[C@H](O)[C@@H]1O (some centres not stated)")
0.7

---

Target: ribose-5-phosphate isomerase (Spinacia oleracea) (UniProt Q8RU73)
Sequence (whole entry): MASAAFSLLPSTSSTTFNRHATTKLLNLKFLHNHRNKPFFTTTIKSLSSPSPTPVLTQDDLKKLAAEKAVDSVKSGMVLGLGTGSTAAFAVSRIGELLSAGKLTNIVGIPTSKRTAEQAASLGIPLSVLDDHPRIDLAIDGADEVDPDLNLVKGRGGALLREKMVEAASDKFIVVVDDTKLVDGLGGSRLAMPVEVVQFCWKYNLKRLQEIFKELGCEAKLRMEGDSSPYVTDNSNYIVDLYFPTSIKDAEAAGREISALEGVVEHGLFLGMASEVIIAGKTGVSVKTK
Assay: Competitive inhibition of Spinacia oleracea RPIA assessed as ratio of Km/Ki using D-ribose-5-phosphate as substrate by Cheng-Prusoff equation analysis
valueKind: Ratio

>>> val("CC(C(C(=O)O)C(=O)O)[C@@H](O)[C@@H](O)[C@@H](O)CCC(=O)O (stereo partly specified)")
"< 4"
>>> val("O=S(=O)(O)CC[C@H]1OC(O)[C@H](O)[C@@H]1O (stereo partly specified)")
26
>>> val("CC(C(C(=O)O)C(=O)O)[C@@H](O)[C@@H](O)[C@@H](O)CCP(=O)(O)O (stereo partly specified)")
"< 4"
>>> val("O=C(O)C(C[C@H]1OC(O)[C@H](O)[C@@H]1O)C(=O)O (stereo partly specified)")
7
>>> val("O=S(=O)(O)OC[C@H]1OC(O)[C@H](O)[C@@H]1O (stereo partly specified)")
17
>>> val("O=C(O)[C@@H](O)[C@@H](O)[C@@H](O)COP(=O)(O)O (single isomer, unassigned)")
79
